The measured values listed here are drawn from paper PMC4552634.

Test system: P. falciparum stage V gametocytes
Set-up: BacTiter-Glo ATP luminescence viability of purified stage V gametocytes in 384-well plates, per cent inhibition versus DMSO
Conditions: 48 h, 5 µM; inhibitor
The whole screen tested about 13,000 compounds, of which about 3,200 (25%) showed an effect of 50% or more. This is one part of the list.
Readout Name: % Inhibition (%)

[[record]]
compound = "COc1cc(NCCCNCc2cn(Cc3cc(Br)cc(Br)c3)c3ccccc23)nc2ccccc12"
readout_name = "% Inhibition"
result_value = 108.1

[[record]]
compound = "NC(=O)c1ccccc1OCC(=O)Nc1cccc(-c2ccc(-c3nc4ccc(C(F)(F)F)cc4[nH]3)cc2)c1"
readout_name = "% Inhibition"
result_value = -3.438

[[record]]
compound = "Cc1cccc2[nH]c(-c3cccc(-c4ccc(NC(=O)COc5ccccc5C(N)=O)cc4)c3)nc12"
readout_name = "% Inhibition"
result_value = 84.32

[[record]]
compound = "COc1cc(NCC2(CNCc3cn(Cc4ccccc4)c4ccccc34)CCCCC2)nc2ccccc12.Cl"
readout_name = "% Inhibition"
result_value = 107.8

[[record]]
compound = "NC(=O)c1ccccc1OCC(=O)Nc1ccc(-c2cccc(-c3nc4ccc(C(F)(F)F)cc4[nH]3)c2)cc1"
readout_name = "% Inhibition"
result_value = 71.31

[[record]]
compound = "COc1ccc2nc(-c3cc(-c4ccc(NC(=O)C(C)C)cc4)cnc3N)[nH]c2c1"
readout_name = "% Inhibition"
result_value = 10.64

[[record]]
compound = "Cc1cccc2[nH]c(-c3cccc(-c4cccc(NC(=O)COc5ccccc5C(N)=O)c4)c3)nc12"
readout_name = "% Inhibition"
result_value = 45.07

[[record]]
compound = "CCN(CC)CCCNc1c2ccccc2nc2ccccc12.Cl"
readout_name = "% Inhibition"
result_value = 76.48


----------
System: P. falciparum stage V gametocytes
Design: BacTiter-Glo ATP luminescence viability of purified stage V gametocytes in 384-well plates, per cent inhibition versus DMSO
Settings: 48 h, 5 µM; inhibitor
Out of some 13,000 compounds screened, about 3,200 (25%) showed an effect of 50% or more. This is one part of the list.
Readout Name: % Inhibition

[[record]]
compound = "CCCCn1c(C)c(C(=O)OCC)c2cc(OC(C)=O)c(Br)cc21"
result_value = "-26.36%"

[[record]]
compound = "Cc1cc(NCc2ccccc2)nc(NCc2ccccc2)n1"
result_value = "26.39%"

[[record]]
compound = "Cc1[nH]c2c(C)cccc2c1C1CCN(CCC2CCN(C(=O)/C=C/c3ccc(Cl)c(Cl)c3)CC2)CC1"
result_value = "38.01%"

[[record]]
compound = "Cc1cc(NCC(c2ccccc2)c2ccccc2)nc(NCc2ccc(C(F)(F)F)cc2)n1"
result_value = "69.12%"

[[record]]
compound = "Cc1ccc(Oc2ccccc2NC(=O)CCc2nc3ccccc3c(=O)[nH]2)cc1"
result_value = "59.46%"

[[record]]
compound = "CC(C)[C@H](NC(=O)c1ccc(O)c(-c2ccc(Cl)c(Cl)c2)c1)C(=O)NCCN1CCCCC1"
result_value = "1.563%"

[[record]]
compound = "O=C(N[C@@H](CC1CCCCC1)C(=O)NC1CC1)c1ccc(O)c(-c2cccc(C(F)(F)F)c2)c1"
result_value = "9.846%"

[[record]]
compound = "COc1ccc(CCn2c(=N)c(C(=O)NCc3ccccc3)cc3c(=O)n4ccccc4nc32)cc1"
result_value = "34.54%"

[[record]]
compound = "CCOC(=O)c1cn(CC)c2cc(F)c(OC3CC4CCC3(C)C4(C)C)cc2c1=O (stereo not shown)"
result_value = "-18.01%"

[[record]]
compound = "Cc1cc(Nc2cccc(C(F)(F)F)c2)nc(NCc2ccccc2)n1"
result_value = "3.225%"

[[record]]
compound = "CC(C)(CNC(=O)C1CCN(Cc2ccc(Cl)cc2)CC1)c1nc(-c2ccc(Cl)c(O)c2)c(-c2ccncc2)[nH]1"
result_value = "-35.73%"

[[record]]
compound = "N#Cc1ccc2c(c1)CN(CCC1CCC(NC(=O)c3cc4cc(OC(F)(F)F)ccc4[nH]3)CC1)CC2 (stereo not shown)"
result_value = "23.56%"

[[record]]
compound = "Cc1cc(N[C@@H](C)C(=O)Nc2ccccc2)nc(NCCc2ccc(F)cc2)n1"
result_value = "30.85%"

[[record]]
compound = "Nc1ccnc2ccc(NC(=O)CCCCCc3ccccc3)cc12"
result_value = "2.045%"

[[record]]
compound = "O=C(Nc1ccc(OC2CCN(Cc3ccsc3)C2)c(Cl)c1)c1ccco1 (stereo not shown)"
result_value = "41.88%"

[[record]]
compound = "Cc1ccc(S(=O)(=O)NC2=NC(C)(C)N(OCc3ccc(Cl)c(Cl)c3)C(N)=N2)cc1"
result_value = "22.12%"


----------
System: P. falciparum stage V gametocytes
Design: BacTiter-Glo ATP luminescence viability of purified stage V gametocytes in 384-well plates, per cent inhibition versus DMSO
Details: 48 h, 5 µM; inhibitor
In all, about 13,000 compounds went through this assay and about 3,200 (25%) showed an effect of 50% or more. Some of the results follow.
Readout Name: % Inhibition (%)

[[record]]
molecule = "COc1ccc(-c2ccc(NC(=O)c3ccc(C#N)cc3)cc2)cc1CN1CCCC1 [TCMDC-132519]"
result_value = 46.41

[[record]]
molecule = "CS(=O)(=O)NCCCNCc1ccc(-c2ccc(-c3nc4cc(F)ccc4[nH]3)cc2)cc1.O=C(O)C(F)(F)F [TCMDC-133081]"
result_value = -74.36

[[record]]
molecule = "COc1ccc2nccc(N3CCC(CCNCc4cc5c(cn4)OCCO5)CC3)c2n1 [TCMDC-133538]"
result_value = 80.45

[[record]]
molecule = "COc1ccc2nccc(N3CCC(NCCNCc4cc5c(cn4)OCCO5)C3)c2n1 (stereo not shown) [TCMDC-134650]"
result_value = 71.62

[[record]]
molecule = "O=C(Nc1ccccc1N1CCOCC1)c1ncoc1-c1ccccc1C(F)(F)F [TCMDC-123538]"
result_value = -21.73

[[record]]
molecule = "O=C(c1ccccc1)N1COCC(CCN2CCC(N3CCCC3)CC2)(c2ccc(Cl)c(Cl)c2)C1 (stereo not shown) [TCMDC-141760]"
result_value = 43.61

[[record]]
molecule = "COc1ccc2nccc(N3CCC(CCNCc4cc5c(cn4)OCCO5)CC3)c2c1.Cl [TCMDC-133537]"
result_value = 9.41

[[record]]
molecule = "O=C(Nc1cccc(-c2ccc(CN3CCCC3)cc2)c1)c1cccc(Cl)c1 [TCMDC-132643]"
result_value = 24.88

[[record]]
molecule = "CN1CCCN(Cc2cccc(-c3cccc(NC(=O)c4cccc(Cl)c4)c3)c2)CC1 [TCMDC-132657]"
result_value = -0.3892

[[record]]
molecule = "O=C(Cc1c[nH]cn1)Nc1ccc(-c2ccc(-c3nc4cc(C(F)(F)F)ccc4[nH]3)s2)cc1 [TCMDC-136944]"
result_value = -5.397

[[record]]
molecule = "CC(=O)c1ccc(N2CCN(CCC3(c4ccc(Cl)c(Cl)c4)COCN(C(=O)c4ccccc4)C3)CC2)cc1 (stereo not shown) [TCMDC-141761]"
result_value = 30.09

[[record]]
molecule = "O=C(Nc1ccccc1)NC1CCN(CCC2(c3ccc(Cl)c(Cl)c3)COCN(C(=O)c3ccccc3)C2)C1 (stereo not shown) [TCMDC-141759]"
result_value = 59.82

[[record]]
molecule = "O=C(Cc1c[nH]cn1)Nc1cccc(-c2ccc(-c3nc4cc(F)ccc4[nH]3)s2)c1 [TCMDC-136953]"
result_value = 5.637

[[record]]
molecule = "O=C(Nc1cccc(-c2ccc(-c3nc4cc(C(F)(F)F)ccc4[nH]3)s2)c1)c1ccncc1 [TCMDC-136960]"
result_value = -10.77

[[record]]
molecule = "COc1ccc(-c2ccc(NC(=O)c3ccc(C#N)cc3)cc2)cc1CN1CCNCC1 [TCMDC-132516]"
result_value = 43.65

[[record]]
molecule = "O=C(Nc1cccc(-c2ccc(-c3nc4cc(C(F)(F)F)ccc4[nH]3)s2)c1)c1c[nH]cn1 [TCMDC-136934]"
result_value = 63.59


----------
Test system: P. falciparum stage V gametocytes
Parameters: BacTiter-Glo ATP luminescence viability of purified stage V gametocytes in 384-well plates, per cent inhibition versus DMSO
Settings: 48 h, 5 µM; inhibitor
Hit rate of the full screen: of about 13,000 compounds, about 3,200 (25%) showed an effect of 50% or more. The list shows a part of the results.
Tag: Condition met if measured % Inhibition is not below 10%, Condition not met if it is.

[[record]]
compound = "COc1ccc(-c2ccc(NC(=O)c3ccc(C#N)cc3)c(F)c2)cc1CN(C)CCN(C)C"
test_system = "P. falciparum stage V gametocytes"
cat = "Condition met"

[[record]]
compound = "COc1ccc(CN(C)CC(O)COc2ccc(NC(=O)c3cccc4c(=O)c5cccc(OC)c5[nH]c34)cc2)cc1OC (centres unmarked)"
test_system = "P. falciparum stage V gametocytes"
cat = "Condition met"

[[record]]
compound = "O=C(Cc1cnc[nH]1)Nc1ccc(-c2ccc(-c3nc4ccc(F)cc4[nH]3)cc2)cc1"
test_system = "P. falciparum stage V gametocytes"
cat = "Condition not met"

[[record]]
compound = "NC(=S)Cc1ccc2c(c1)OCO2"
test_system = "P. falciparum stage V gametocytes"
cat = "Condition not met"

[[record]]
compound = "COc1ccc(-c2cccc(NC(=O)c3ccc(F)cc3)c2)cc1CNC(C)C"
test_system = "P. falciparum stage V gametocytes"
cat = "Condition met"

[[record]]
compound = "COc1ccc(-c2cccc(NC(=O)c3ccc(C#N)cc3)c2)cc1CNC(C)C"
test_system = "P. falciparum stage V gametocytes"
cat = "Condition met"

[[record]]
compound = "COc1ccc(-c2cccc(NC(=O)c3cccc(C#N)c3)c2)cc1CN(C)CCN(C)C"
test_system = "P. falciparum stage V gametocytes"
cat = "Condition met"

[[record]]
compound = "CC(C)CCN1CCC(Oc2ccc(NC(=O)c3ccsc3)cc2Cl)CC1"
test_system = "P. falciparum stage V gametocytes"
cat = "Condition met"

